# Test system: Punta Toro virus
# protocol summary: microbe, parasite or virus in culture
# Format: cell-based
# measurement conditions: read-out: EC50 Punta Toro virus
endpoint name: EC50 (µM)
Provide only the numeric value, understood in µM.

Q. # returns recorded EC50 (system: Punta Toro virus) for CC(C)n1ncc2c(C(=O)Nc3ccc(F)cc3)cc(-c3cccs3)nc21 [JX-017]
A. 12

Q. # returns recorded EC50 (system: Punta Toro virus) for CC(C)n1ncc2c(C(=O)Nc3ccc(F)cc3F)cc(-c3cccs3)nc21 [JX-008]
A. 23

Q. # returns recorded EC50 (system: Punta Toro virus) for CC(C)n1ncc2c(C(=O)Nc3cccc(S(N)(=O)=O)c3)cc(-c3cccs3)nc21 [JX-025]
A. 38

====

Give CC50 for every item shown.
Provide only the numeric value, understood in µM.

Q. # returns recorded CC50 (system: RD cells) for CC(C)n1ncc2c(C(=O)Nc3ccccn3)cc(-c3ccccc3)nc21
A. 12.5

Q. # returns recorded CC50 (system: RD cells) for CC(C)n1ncc2c(C(=O)N3CCc4cccnc43)cc(-c3cccs3)nc21
A. 45

Q. # returns recorded CC50 (system: RD cells) for CC(C)n1ncc2c(C(=O)Nc3ccc(S(C)(=O)=O)cc3)cc(-c3cccs3)nc21
A. 75

Q. # returns recorded CC50 (system: RD cells) for CC(C)n1ncc2c(C(=O)Nc3cncnc3)cc(-c3cccs3)nc21
A. 25

Q. # returns recorded CC50 (system: RD cells) for CC(C)n1ncc2c(C(=O)Nc3cc(S(N)(=O)=O)ccc3F)cc(-c3cccs3)nc21
A. 25

Q. # returns recorded CC50 (system: RD cells) for CC(C)n1ncc2c(C(=O)Nc3cccnc3)cc(-c3cccs3)nc21
A. 25

Q. # returns recorded CC50 (system: RD cells) for CC(C)n1ncc2c(C(=O)Nc3ccc(F)cc3)cc(-c3ccsc3)nc21
A. 25

====

Give EC50 for every item shown.
# System: Poliovirus 3
# protocol summary: microbe, parasite or virus in culture
# Type: cell-based
# measurement conditions: read-out: EC50 PV3

Q. What does the record list as EC50 for CC(C)n1ncc2c(C(=O)Nc3cc(S(N)(=O)=O)ccc3F)cc(-c3cccs3)nc21 ?
A. 6.25 µM

Q. What does the record list as EC50 for CC(C)n1ncc2c(C(=O)Nc3ccc(F)cc3)cc(C3CC3)nc21 ?
A. > 10 µM

Q. What does the record list as EC50 for CC(C)n1ncc2c(C(=O)Nc3ccccn3)cc(-c3ccccc3)nc21 ?
A. > 10 µM

Q. What does the record list as EC50 for CC(C)n1ncc2c(C(=O)Nc3ccccc3S(N)(=O)=O)cc(-c3cccs3)nc21 ?
A. > 25 µM

Q. What does the record list as EC50 for CC(C)n1ncc2c(C(=O)Nc3ccc(F)cc3)cc(-c3ccco3)nc21 ?
A. > 25 µM

Q. What does the record list as EC50 for CC(C)n1ncc2c(C(=O)Nc3cc(F)cc(F)c3)cc(-c3cccs3)nc21 ?
A. > 10 µM

Q. What does the record list as EC50 for CC(C)n1ncc2c(C(=O)Nc3cc(F)ccc3F)cc(-c3cccs3)nc21 ?
A. > 25 µM

Q. What does the record list as EC50 for CC(C)n1ncc2c(C(=O)N3CCc4cc(F)ccc43)cc(-c3cccs3)nc21 ?
A. > 10 µM

Q. What does the record list as EC50 for CC(C)n1ncc2c(C(=O)Nc3ccncn3)cc(-c3ccsc3)nc21 ?
A. > 10 µM
